# Test system: HepG2
# TEST_SUMMARY: GSK_TCMDC: Percent inhibition of human HepG2 cell line. Test compounds present at 10uM.
# Type: functional
MEASUREMENT_TYPE: Inhibition

{"columns": ["COMPOUND", "OBSERVED_VALUE"],
 "data": [
  ["CCC[C@@H]([C@@H](CC1CCCCC1)C(=O)N[C@H](C(=O)Nc1nccs1)[C@@H](C)OCc1ccccc1)N(O)C=O", "51%"],
  ["CCc1ccc(NC(=O)c2cccc(CN3CCCN(CC4CCCCC4)CC3)c2)cc1.O=C(O)C(F)(F)F", "62%"],
  ["CC1C(c2cccc(Cl)c2)OCC(C)(C)N1C(=O)CCN1CCCCC1.Cl (stereo not given)", "2%"],
  ["COc1cc(-c2cc(-c3ccc(S(C)(=O)=O)cc3)cnc2N)ccc1O", "37%"],
  ["Cc1cc(C=C2SC(=Nc3ccccc3)N(C3CCCC3)C2=O)c(C)n1-c1ccc(Cl)cc1", "0%"]
]}

Data provenance: ChEMBL document CHEMBL1157539
